Reference source: PubChem BioAssay (NCI)

test system: SK-MEL-2 melanoma; assay: NCI tumour cell line growth inhibition, 48 h

- molecule: "O=C(/C=C/c1ccc(O)c(-c2cc(C(=O)/C=C/c3ccc(O)cc3)c(O)cc2O)c1)c1ccc(O)cc1O"
  TGI: "> 50 µM"
- molecule: "COc1cccc(-n2nc(C)c3c(N/N=C(\\C)c4ccncc4)ncnc32)c1"
  TGI: "> 25 µM"
- molecule: "COC(=O)c1sc(=S)sc1SCc1ccc(CSc2sc(=S)sc2C(=O)OC)cc1"
  TGI: "> 100 µM"
- molecule: "C=CCC1(OC(C)=O)C2OC(=O)C1(O)OCC2O (centres undefined)"
  TGI: "> 100 µM"
- molecule: "Cc1cccc(N(C(=O)Nc2ccc(Cl)c(Cl)c2)C2=NCC(C)S2)c1 (centres undefined)"
  TGI: "> 100 µM"
- molecule: "O=C1NCc2ccccc2S(=O)(=O)n2cccc21"
  TGI: "> 100 µM"
- molecule: "CC(=O)O[C@H]1[C@@H]2OC(=O)[C@@](O)(CC3CCCO3)[C@@H]2CC(=O)[C@](C)(O)CC/C=C(\\C)CCC[C@@H]1C (some centres undefined)"
  TGI: "> 100 µM"
- molecule: "CCCCc1ccc(Nc2nc(SC)c3[nH]cnc3n2)cc1"
  TGI: "> 100 µM"
- molecule: "O=C(OCN1C(=O)C2C3C=CC(C2C1=O)C1C2C(=O)N(COC(=O)C4CCCN4)C(=O)C2C31)C1CCCN1 (centres undefined)"
  TGI: "> 31.6 µM"

* * *

test system: HS 578T breast; assay: NCI tumour cell line growth inhibition, 48 h

- compound: "Nc1nc(SCCc2ccccc2)nc2nc3c(c(-c4ccccc4)c12)CCCC3"
  tested.target: "HS 578T breast"
  TGI: "64.7 µM"
- compound: "O=C(O)c1cc2ccc3ccccc3c2oc1=O"
  tested.target: "HS 578T breast"
  TGI: "> 100 µM"
- compound: "c1csc(-c2cn3nc(-c4c[nH]c5ccccc45)sc3n2)c1"
  tested.target: "HS 578T breast"
  TGI: "> 100 µM"
- compound: "O=C(CCCN1CCC2(CC1)CC(=O)N(N1CCCCCC1)C2=O)c1ccccc1"
  tested.target: "HS 578T breast"
  TGI: "> 100 µM"
- compound: "COc1cccc2c1C(=O)c1c(O)c3c(c(O)c1C2=O)CC(O)(C(O)CO)CC3OC1CC(N2CCOCC2)C(O)C(C)O1 (centres undefined)"
  tested.target: "HS 578T breast"
  TGI: "0.214 µM"
- compound: "CN[C@H](C#Cc1c(F)ccc2c1/C(=C/c1[nH]ccc1OC)C(=O)N2)CO"
  tested.target: "HS 578T breast"
  TGI: "12.9 µM"
- compound: "CCOC(=O)C(NC(=O)c1ccco1)(Nc1nc2ccc(OCC)cc2s1)C(F)(F)F (centres undefined)"
  tested.target: "HS 578T breast"
  TGI: "> 100 µM"
- compound: "C=C1/C(=C\\C=C2/CCC[C@]3(C)[C@@H]([C@H](C)CCCC(C)(C)O)CC[C@@H]23)C[C@@H](OC(=O)CBr)C[C@@H]1O"
  tested.target: "HS 578T breast"
  TGI: "8.12 µM"
- compound: "Fc1ccc(C(OCCN2CCC3CCC(C2)N3C/C=C/c2ccco2)c2ccc(F)cc2)cc1 (centres undefined)"
  tested.target: "HS 578T breast"
  TGI: "34.3 µM"
- compound: "CC1=NN(c2nc(N)nc(CSc3nc4n(c(=S)n3)CCN4)n2)C(C)(C)C1"
  tested.target: "HS 578T breast"
  TGI: "41.3 µM"
- compound: "O=C(N/C(=C/c1ccc(Cl)cc1Cl)c1nc2ccccc2s1)c1ccccc1"
  tested.target: "HS 578T breast"
  TGI: "44.3 µM"
- compound: "O=C(c1cccs1)N(C(=S)OC12CC3CC(CC(C3)C1)C2)c1ccccc1"
  tested.target: "HS 578T breast"
  TGI: "> 100 µM"
- compound: "NCCSC(c1ccccc1)c1ccccc1"
  tested.target: "HS 578T breast"
  TGI: "76.5 µM"
- compound: "S=C1N(/N=C/c2c3ccccc3cc3ccccc23)C(=Nc2ccccc2)C(=Nc2ccccc2)N1c1ccccc1"
  tested.target: "HS 578T breast"
  TGI: "> 100 µM"
- compound: "CC(=O)O[C@H]1[C@@H]2OC(=O)[C@@](O)(CC3CCCO3)[C@@H]2CC(=O)[C@](C)(O)CC/C=C(\\C)CCC[C@@H]1C (some centres undefined)"
  tested.target: "HS 578T breast"
  TGI: "> 100 µM"
- compound: "CC(=O)OC[C@]12CC[C@@H](C(=O)CBr)[C@@H]1[C@H]1CC[C@@H]3[C@@]4(C)CCCNC(C)(C)[C@@H]4CC[C@@]3(C)[C@]1(C)CC2"
  tested.target: "HS 578T breast"
  TGI: "> 100 µM"
- compound: "COc1cc(CO)c(CC(=O)NCCCc2ccccc2)cc1OC"
  tested.target: "HS 578T breast"
  TGI: "> 100 µM"
- compound: "Cc1cc(O)c(C2=NN(c3ccc(S(N)(=O)=O)cc3)C(c3ccccc3Cl)C2)cc1Cl (centres undefined)"
  tested.target: "HS 578T breast"
  TGI: "> 100 µM"
- compound: "CCOC(=O)c1c(N)sc2c1C(C)(C(=O)OCC)CC2 (centres undefined)"
  tested.target: "HS 578T breast"
  TGI: "> 100 µM"
